Compound: Cc1ccc(NC(=S)Nc2cccc3c2C2CCCCN2C3=O)nc1 (stereo not drawn) [Compound 73]
Unit Spec: °C
melting point: 232

Compound: O=C(Nc1ncccn1)Nc1cccc2c1C1CCCCN1C2=O (stereo not drawn) [Compound 42]
Unit Spec: °C
melting point: 232

Compound: Cn1ccc(NC(=O)Nc2cccc3c2C2CCCCN2C3=O)n1 (stereo not drawn) [Compound 41]
Unit Spec: °C
melting point: 233

Compound: O=C1c2cccc(-n3c(=O)[nH]c4cnccc4c3=O)c2C2CC3(CCN12)OCCO3 (stereo not drawn) [Compound 113]
Unit Spec: °C
melting point: 204

Compound: O=C1c2cccc(NC(=S)Nc3cccc(Br)n3)c2C2CCCCN12 (stereo not drawn) [Compound 67]
Unit Spec: °C
melting point: 195

Sourced from patent US20120095022A1
